Just for reference, patent US20050228016A1 is where these values come from.

For each of the compounds below, state its Fold Induction (100 μM).
TARGET DESC: DmEcR + LmUSP (Drosophila melanogaster, UniProt P34021)
Sequence (P34021 342-878): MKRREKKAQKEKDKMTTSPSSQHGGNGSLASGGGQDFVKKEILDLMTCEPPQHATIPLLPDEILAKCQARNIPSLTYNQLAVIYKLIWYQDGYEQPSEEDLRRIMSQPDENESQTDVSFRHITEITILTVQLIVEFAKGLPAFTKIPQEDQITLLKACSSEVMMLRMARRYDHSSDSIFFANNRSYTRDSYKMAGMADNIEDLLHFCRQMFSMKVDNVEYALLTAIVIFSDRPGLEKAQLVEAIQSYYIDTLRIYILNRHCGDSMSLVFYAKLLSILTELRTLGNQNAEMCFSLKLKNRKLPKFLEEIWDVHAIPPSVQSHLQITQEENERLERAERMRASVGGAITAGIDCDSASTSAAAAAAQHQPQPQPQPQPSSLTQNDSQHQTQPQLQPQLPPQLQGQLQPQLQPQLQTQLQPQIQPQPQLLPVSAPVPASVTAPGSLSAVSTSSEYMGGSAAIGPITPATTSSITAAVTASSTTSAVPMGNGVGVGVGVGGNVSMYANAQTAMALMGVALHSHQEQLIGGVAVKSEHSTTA
APPLIED CONDITIONS: 100 μM; DmEcR + LmUSP in 3T3 cells; reporter assayed 48 h after ligand
Answer format: number, then unit.

[
  {
    "COMPOUND": "C[C@H]1C[C@H](Nc2ccc(F)cc2)c2cc(F)ccc2N1C(=O)c1ccc(F)cc1 (relative stereo) [Compound I-9]",
    "TARGET DESC": "DmEcR + LmUSP (Drosophila melanogaster, UniProt P34021)",
    "Fold Induction (100 μM)": "2 fold"
  },
  {
    "COMPOUND": "C[C@H]1C[C@H](Nc2ccc(F)cc2)c2cc(F)ccc2N1C(=O)c1ccc(F)c(C(F)(F)F)c1 (relative stereo) [Compound I-5]",
    "TARGET DESC": "DmEcR + LmUSP (Drosophila melanogaster, UniProt P34021)",
    "Fold Induction (100 μM)": "7 fold"
  },
  {
    "COMPOUND": "C[C@H]1C[C@H](Nc2ccc(F)cc2)c2cc(F)ccc2N1C(=O)c1ccccc1 (relative stereo) [Compound I-11]",
    "TARGET DESC": "DmEcR + LmUSP (Drosophila melanogaster, UniProt P34021)",
    "Fold Induction (100 μM)": "3 fold"
  },
  {
    "COMPOUND": "C[C@H]1C[C@@H](Nc2ccc(F)cc2)c2cc(F)ccc2N1C(=O)c1ccccc1 (relative stereo) [Compound I-10]",
    "TARGET DESC": "DmEcR + LmUSP (Drosophila melanogaster, UniProt P34021)",
    "Fold Induction (100 μM)": "1 fold"
  }
]

Specify measured Fold Induction (100 μM) for C[C@H]1C[C@@H](Nc2ccc(F)cc2)c2cc(F)ccc2N1C(=O)c1ccc(F)cc1 (relative stereo) [Compound I-8] .
7 fold

###

TARGET DESC: Bombyx mori EcR (VP16-BmEcR, CVBE) (Bombyx mori, UniProt P49881)
Construct: expressed in transfected cells
Sequence (P49881 86-606): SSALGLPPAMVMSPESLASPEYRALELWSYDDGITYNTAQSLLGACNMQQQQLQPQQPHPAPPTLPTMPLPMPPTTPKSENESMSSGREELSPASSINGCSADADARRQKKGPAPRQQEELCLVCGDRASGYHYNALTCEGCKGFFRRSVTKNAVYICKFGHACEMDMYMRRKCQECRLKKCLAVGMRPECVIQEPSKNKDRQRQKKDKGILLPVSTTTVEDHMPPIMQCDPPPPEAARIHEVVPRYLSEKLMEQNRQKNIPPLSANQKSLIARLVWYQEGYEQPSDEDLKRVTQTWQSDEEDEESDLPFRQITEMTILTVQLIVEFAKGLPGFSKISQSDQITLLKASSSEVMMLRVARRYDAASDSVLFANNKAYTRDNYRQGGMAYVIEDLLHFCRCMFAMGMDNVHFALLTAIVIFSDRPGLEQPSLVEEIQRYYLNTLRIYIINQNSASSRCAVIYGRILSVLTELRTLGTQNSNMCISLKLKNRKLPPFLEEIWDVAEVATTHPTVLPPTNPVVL
ASSAY NOTES: Z3 assay (HEK-293 clone Z3 with CVBE and 6x EcRE LacZ, β-galactosidase reporter)
Assay type: cell-based
APPLIED CONDITIONS: 48 h, average of two wells
RECORDED ENDPOINT: Fold Induction Average, Z3V1 Assay 33 μM (fold)
Answers are plain numbers, in fold.

[
  {
    "COMPOUND": "Cc1ccc(NC2CC(C)N(C(=O)c3ccc(Cl)c(F)c3)c3ccc(C)cc32)cc1 (stereo not shown)",
    "Fold Induction Average, Z3V1 Assay 33 μM [fold]": 2
  },
  {
    "COMPOUND": "COC(=O)c1ccc(C(=O)N2c3ccc(F)cc3C(Nc3ccc(F)cc3)CC2C)cc1 (stereo not shown) [Compound I-94]",
    "Fold Induction Average, Z3V1 Assay 33 μM [fold]": 48
  },
  {
    "COMPOUND": "Cc1ccc(C(=O)N2c3ccccc3[C@@H](Nc3ccccc3)C[C@@H]2C)cc1 (relative stereo)",
    "Fold Induction Average, Z3V1 Assay 33 μM [fold]": 1
  },
  {
    "COMPOUND": "C[C@H]1C[C@H](Nc2ccccc2)c2ccccc2N1C(=O)c1ccc(F)c(F)c1 (relative stereo)",
    "Fold Induction Average, Z3V1 Assay 33 μM [fold]": 20
  },
  {
    "COMPOUND": "C[C@H]1C[C@@H](Nc2ccccc2)c2ccccc2N1C(=O)c1ccc2c(c1)OCO2 (relative stereo)",
    "Fold Induction Average, Z3V1 Assay 33 μM [fold]": 1
  },
  {
    "COMPOUND": "Cc1ccc(C(=O)N2c3ccc(F)cc3[C@@H](Nc3ccc(F)cc3)C[C@@H]2C)cc1 (relative stereo)",
    "Fold Induction Average, Z3V1 Assay 33 μM [fold]": 100
  }
]

Now for a further compound.
Specify measured Fold Induction Average, Z3V1 Assay 33 μM for CC1CC(N(C(=O)C2CC2)c2ccccc2)c2ccccc2N1C(=O)C1CC1 (stereo not shown) .
1

###

TARGET DESC: Gal4DBD/AaEcR (DEF) (Aedes aegypti)
Construct: The wildtype D, E, and F domains from mosquito Aedes aegypti EcR; expressed in transfected cells; host or cells: 3T3 cells
ASSAY NOTES: cell-based
Assay type: cell-based
APPLIED CONDITIONS: 33 μM; 3T3 cells; 48 h; average of two wells
Lab note: anything with Fold Induction Average, AA_3T3V1 Assay 33 μM at or over 100 fold counts as fulfilled; the rest go in not fulfilled.

Check out these entries, answers already filled in.
[
  {
    "COMPOUND": "C[C@H]1C[C@@H](Nc2ccccc2)c2ccccc2N1C(=O)c1ccc(C(F)(F)F)c(F)c1 (relative stereo)",
    "TARGET DESC": "Gal4DBD/AaEcR (DEF) (Aedes aegypti)",
    "GROUP LABEL": "not fulfilled"
  },
  {
    "COMPOUND": "C[C@H]1C[C@H](Nc2ccccc2)c2ccccc2N1C(=O)c1cccc(C(F)(F)F)c1 (relative stereo)",
    "TARGET DESC": "Gal4DBD/AaEcR (DEF) (Aedes aegypti)",
    "GROUP LABEL": "fulfilled"
  },
  {
    "COMPOUND": "COC(=O)c1ccc(C(=O)N2c3ccccc3[C@H](Nc3ccccc3)C[C@@H]2C)cc1 (relative stereo)",
    "TARGET DESC": "Gal4DBD/AaEcR (DEF) (Aedes aegypti)",
    "GROUP LABEL": "not fulfilled"
  }
]

Decide: is the reported value of Fold Induction Average, AA_3T3V1 Assay 33 μM for Cc1ccc(NC2CC(C)N(C(=O)c3ccc(Cl)cc3)c3ccc(C)cc32)cc1 (stereo not shown) [Compound I-63] equal to or greater than 100 fold?
fulfilled

Decide: is the reported value of Fold Induction Average, AA_3T3V1 Assay 33 μM for Cc1ccc(C(=O)N2c3ccccc3C(Nc3ccc(F)cc3)CC2C)cc1 (mixture of isomers) equal to or greater than 100 fold?
not fulfilled

Decide: is the reported value of Fold Induction Average, AA_3T3V1 Assay 33 μM for COC(=O)c1ccc(C(=O)N2c3ccccc3[C@@H](Nc3ccccc3)C[C@@H]2C)cc1 (relative stereo) equal to or greater than 100 fold?
fulfilled

Decide: is the reported value of Fold Induction Average, AA_3T3V1 Assay 33 μM for Cc1cccc(C(=O)N2c3ccccc3C(Nc3ccccc3)CC2C)c1 (stereo not shown) equal to or greater than 100 fold?
fulfilled

###

TARGET DESC: Gal4DBD/AaEcR (DEF) (Aedes aegypti, UniProt P49880)
Construct: The wildtype D, E, and F domains from mosquito Aedes aegypti EcR; expressed in transfected cells; host or cells: 3T3 cells
Sequence (P28704 286-520 A311G/G315S/G445S/I449V): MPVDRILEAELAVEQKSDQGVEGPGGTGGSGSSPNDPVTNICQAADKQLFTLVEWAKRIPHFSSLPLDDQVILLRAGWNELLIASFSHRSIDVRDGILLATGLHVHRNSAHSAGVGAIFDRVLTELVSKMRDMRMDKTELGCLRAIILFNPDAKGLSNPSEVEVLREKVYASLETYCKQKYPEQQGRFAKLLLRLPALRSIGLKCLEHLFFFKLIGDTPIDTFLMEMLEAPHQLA
Sequence (P49880 405-776): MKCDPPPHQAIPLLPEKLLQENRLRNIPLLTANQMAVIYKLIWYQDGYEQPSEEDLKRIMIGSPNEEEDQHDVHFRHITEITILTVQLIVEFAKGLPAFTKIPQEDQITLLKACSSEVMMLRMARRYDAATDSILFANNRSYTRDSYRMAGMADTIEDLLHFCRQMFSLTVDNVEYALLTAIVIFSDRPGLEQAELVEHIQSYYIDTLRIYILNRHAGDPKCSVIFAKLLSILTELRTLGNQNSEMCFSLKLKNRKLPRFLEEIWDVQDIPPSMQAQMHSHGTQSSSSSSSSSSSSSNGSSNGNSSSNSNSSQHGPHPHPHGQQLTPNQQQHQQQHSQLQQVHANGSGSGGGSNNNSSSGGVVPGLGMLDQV
ASSAY NOTES: cell-based
Assay type: cell-based
APPLIED CONDITIONS: 33 μM; 3T3 cells; 48 h; average of two wells
Protocol: 3T3 cells were trypsinized and plated at 2.5×10^3 cells/well on a 96-well plate. After incubation for 24 h at 37° C. under 5% CO2, cells were transfected with the Gal4DBD/AaEcR (DEF) gene expression cassette and the reporter plasmid, pFRLuc, containing a 5× GAL4 response element and the firefly luciferase gene in serum free media using Superfect (Qiagen). After transfection for 4 h at 37° C., the cells were treated with ligand in serum media. […] Single dose testing was performed at 33 μM.
For each of the compounds below, state its Fold Induction Average, AA_3T3V1 Assay 33 μM.
One number for each entry, in fold.

[
  {
    "COMPOUND": "Cc1ccc(NC2CC(C)N(C(=O)c3cccc([N+](=O)[O-])c3)c3ccc(C)cc32)cc1 (stereo not shown)",
    "REPORTED": 1
  },
  {
    "COMPOUND": "COc1ccc(C(=O)N2c3ccccc3[C@@H](Nc3ccccc3)C[C@@H]2C)cc1 (relative stereo)",
    "REPORTED": 345
  },
  {
    "COMPOUND": "Cc1ccc(N[C@H]2C[C@H](C)N(C(=O)c3ccccc3)c3ccc(C)cc32)cc1 (relative stereo)",
    "REPORTED": 114
  }
]

Now for a further compound.
Specify measured Fold Induction Average, AA_3T3V1 Assay 33 μM for CC1CC(Nc2ccccc2)c2ccccc2N1C(=O)c1ccco1 (stereo not shown) .
1
